experiment: Cmax in Sprague-Dawley rat at 5 mg/kg, po administered via gavage measured up to 24 hrs by LCMS analysis; type: ADME, organism-based; set-up: route oral, dose 5 mg/kg, time <=24; details: in vivo
Listed compounds paired with reported Cmax
quantityMeasured: Cmax (ng/mL)

structureString | resultUnits | measuredNumber
Cc1cc(-c2ccncc2)cc(C)c1Nc1ccnc(Nc2ccc(C#N)cc2)n1.Cl | ng/mL | 365
Br.Cc1cnc(Nc2ccc(C#N)cc2)nc1Nc1c(F)cc(-c2ccncc2)cc1F | ng/mL | 2.14

====

assay: MRTinfinity in Sprague-Dawley rat at 1 mg/kg, iv measured up to 24 hrs by LCMS analysis; assay type: ADME, organism-based; settings: in vivo
quantityMeasured: MRT inf (min)

structureString | quantityMeasured | measuredNumber
Cc1cc(-c2ccncc2)cc(C)c1Nc1ccnc(Nc2ccc(C#N)cc2)n1.Cl | MRT inf | 28.8

====

test: Half life in Sprague-Dawley rat at 5 mg/kg, IG measured up to 24 hrs by LCMS analysis; type: ADME, organism-based; details: in vivo, po

structureString | half-life
N#Cc1ccc(Nc2nccc(Nc3c(F)cc(-c4ccncc4)cc3F)n2)cc1 | 50.4 min

====

experiment: AUC (0 to last) in Sprague-Dawley rat at 1 mg/kg, iv measured up to 24 hrs by LCMS analysis; type: ADME, organism-based; parameters: route intravenous, dose 1 mg/kg, time <=24; conditions: in vivo
quantityMeasured: AUC(0-t) at 24 h

structureString | quantityMeasured | result
Cc1cc(-c2ccncc2)cc(C)c1Nc1ccnc(Nc2ccc(C#N)cc2)n1.Cl | AUC(0-t) at 24 h | 285 ng·h/mL

====

system: Human immunodeficiency virus 1; assay: Antiviral activity against HIV-1 harboring E138K mutant infected in human MT4 cells assessed as protection against virus-induced cytotoxicity incubated for 5 days by MTT assay; assay type: functional, organism-based; conditions: Human immunodeficiency virus 1, MT4, 120 h
pEC50: −log10 of the molar value.
quantityMeasured: pEC50

structureString | measuredNumber
Cc1cc(-c2cc3ccccc3s2)cc(C)c1Nc1ccnc(Nc2ccc(C#N)cc2)n1 | 6.69
Cc1ncc(-c2cc(C)c(Nc3ccnc(Nc4ccc(C#N)cc4)n3)c(C)c2)cn1 | 7.62
Cc1cc(-c2ccncc2)cc(C)c1Nc1ccnc(Nc2ccc(C#N)cc2)n1 | 8.02
Cc1cnc(Nc2ccc(C#N)cc2)nc1Nc1c(F)cc(-c2cc(F)nc(F)c2)cc1F | 7.18
Cc1cnc(Nc2ccc(C#N)cc2)nc1Nc1c(F)cc(-c2ccco2)cc1F | 7.95
COc1ncc(-c2cc(C)c(Nc3ccnc(Nc4ccc(C#N)cc4)n3)c(C)c2)cn1 | 7.71

====

assay: Aqueous solubility of the compound in PBS buffer at pH 7 measured after 24 hrs by HPLC-UV analysis; type: physicochemical
quantityMeasured: solubility at 24 h

structureString | result
Br.Cc1cc(-c2ccncc2)cc(C)c1Nc1ccnc(Nc2ccc(C#N)cc2)n1 | < 1 µg/mL
CS(=O)(=O)O.Cc1cc(-c2ccncc2)cc(C)c1Nc1ccnc(Nc2ccc(C#N)cc2)n1 | < 1 µg/mL
CC(=O)O.Cc1cc(-c2ccncc2)cc(C)c1Nc1ccnc(Nc2ccc(C#N)cc2)n1 | < 1 µg/mL
Cc1cc(-c2ccncc2)cc(C)c1Nc1ccnc(Nc2ccc(C#N)cc2)n1.Cl | 9.1 µg/mL
Cc1cc(-c2ccncc2)cc(C)c1Nc1ccnc(Nc2ccc(C#N)cc2)n1 | < 1 µg/mL
Cc1cc(-c2ccncc2)cc(C)c1Nc1ccnc(Nc2ccc(C#N)cc2)n1.O=C(O)C(F)(F)F | < 1 µg/mL
Cc1cc(-c2ccncc2)cc(C)c1Nc1ccnc(Nc2ccc(C#N)cc2)n1.O=S(=O)(O)O | < 1 µg/mL
Cc1cc(-c2ccncc2)cc(C)c1Nc1ccnc(Nc2ccc(C#N)cc2)n1.O=C(O)CCC(=O)O | < 1 µg/mL

====

target: Human immunodeficiency virus type 1 reverse transcriptase (Human immunodeficiency virus 1); assay: Inhibition of recombinant wild type p66/p51 HIV1 reverse transcriptase incubated for 40 mins by picogreen dye-based spectrofluorometric analysis
Under this convention, t denotes IC50 strictly below 40 nM and f denotes IC50 at or above 40 nM.

structureString | testSystem | answerLabel
Cc1cnc(Nc2ccc(C#N)cc2)nc1Nc1c(F)cc(-c2ccoc2)cc1F | Human immunodeficiency virus type 1 reverse transcriptase (Human immunodeficiency virus 1) | t
Cc1cc(-c2ccnc(C(F)(F)F)c2)cc(C)c1Nc1ccnc(Nc2ccc(C#N)cc2)n1 | Human immunodeficiency virus type 1 reverse transcriptase (Human immunodeficiency virus 1) | f
Cc1cnc(Nc2ccc(C#N)cc2)nc1Nc1c(F)cc(-c2cccs2)cc1F | Human immunodeficiency virus type 1 reverse transcriptase (Human immunodeficiency virus 1) | t
Cc1cnc(Nc2ccc(C#N)cc2)nc1Nc1c(F)cc(-c2ccc(C#N)nc2)cc1F | Human immunodeficiency virus type 1 reverse transcriptase (Human immunodeficiency virus 1) | t
Cc1cc(-c2ccco2)cc(C)c1Nc1ccnc(Nc2ccc(C#N)cc2)n1 | Human immunodeficiency virus type 1 reverse transcriptase (Human immunodeficiency virus 1) | t
Cc1cnc(Nc2ccc(C#N)cc2)nc1Nc1c(F)cc(-c2cc(F)nc(F)c2)cc1F | Human immunodeficiency virus type 1 reverse transcriptase (Human immunodeficiency virus 1) | f
Cc1cc(-c2ccc3cc[nH]c3c2)cc(C)c1Nc1ccnc(Nc2ccc(C#N)cc2)n1 | Human immunodeficiency virus type 1 reverse transcriptase (Human immunodeficiency virus 1) | f
Cc1cnc(Nc2ccc(C#N)cc2)nc1Nc1c(F)cc(-c2cncc(C(F)(F)F)c2)cc1F | Human immunodeficiency virus type 1 reverse transcriptase (Human immunodeficiency virus 1) | f
Cc1cnc(Nc2ccc(C#N)cc2)nc1Nc1c(F)cc(-c2ccncc2)cc1F | Human immunodeficiency virus type 1 reverse transcriptase (Human immunodeficiency virus 1) | t

====

assay: Metabolic stability in human liver microsomes assessed as intrinsic clearance at 1 uM presence of NADPH measured up to 60 mins by LC-MS/MS analysis; type: ADME, Microsome; details: read-out: CLH

structureString | microsomal CLint at 1 µM (µL/min/mg)
Br.Cc1cnc(Nc2ccc(C#N)cc2)nc1Nc1c(F)cc(-c2ccncc2)cc1F | 14.6

====

molecular target: UniProtKB P33261
Sequence (P33261 whole entry): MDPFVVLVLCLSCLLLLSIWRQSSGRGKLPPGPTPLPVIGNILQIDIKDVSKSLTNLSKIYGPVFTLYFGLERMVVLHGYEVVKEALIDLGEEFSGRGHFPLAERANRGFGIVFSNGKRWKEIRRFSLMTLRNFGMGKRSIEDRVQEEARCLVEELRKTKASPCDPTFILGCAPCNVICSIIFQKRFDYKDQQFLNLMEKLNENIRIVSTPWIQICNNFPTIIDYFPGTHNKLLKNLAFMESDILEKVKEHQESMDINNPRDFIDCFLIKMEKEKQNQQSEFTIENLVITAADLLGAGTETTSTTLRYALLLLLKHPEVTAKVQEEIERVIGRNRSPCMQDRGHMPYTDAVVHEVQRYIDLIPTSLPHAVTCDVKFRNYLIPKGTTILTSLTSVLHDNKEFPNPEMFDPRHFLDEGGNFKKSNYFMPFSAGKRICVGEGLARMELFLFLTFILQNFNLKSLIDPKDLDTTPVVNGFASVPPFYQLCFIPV
Listed molecules paired with reported IC50
quantityMeasured: IC50 (µM)

structureString | quantityMeasured | measuredNumber
Br.Cc1cnc(Nc2ccc(C#N)cc2)nc1Nc1c(F)cc(-c2ccncc2)cc1F | IC50 | 2.2
Cc1cc(-c2ccncc2)cc(C)c1Nc1ccnc(Nc2ccc(C#N)cc2)n1.Cl | IC50 | 6.8

====

Listed compounds paired with reported solubility at 24 h
assay: Aqueous solubility of the compound in PBS buffer at pH 2 measured after 24 hrs by HPLC-UV analysis; format: physicochemical
quantityMeasured: solubility at 24 h (µg/mL)

structureString | comparator | measuredNumber
Cc1cnc(Nc2ccc(C#N)cc2)nc1Nc1c(F)cc(-c2ccc(C#N)cc2)cc1F | < | 1
Cc1cc(-c2ccncc2)cc(C)c1Nc1ccnc(Nc2ccc(C#N)cc2)n1 | = | 199
Cc1cc(-c2ccncc2)cc(C)c1Nc1ccnc(Nc2ccc(C#N)cc2)n1.O=C(O)CCC(=O)O | = | 157
CC(=O)O.Cc1cc(-c2ccncc2)cc(C)c1Nc1ccnc(Nc2ccc(C#N)cc2)n1 | = | 211
Cc1cc(-c2ccncc2)cc(C)c1Nc1ccnc(Nc2ccc(C#N)cc2)n1.Cl | = | 584
Br.Cc1cc(-c2ccncc2)cc(C)c1Nc1ccnc(Nc2ccc(C#N)cc2)n1 | = | 348
Cc1cc(-c2ccncc2)cc(C)c1Nc1ccnc(Nc2ccc(C#N)cc2)n1.O=C(O)C(F)(F)F | = | 518
CS(=O)(=O)O.Cc1cc(-c2ccncc2)cc(C)c1Nc1ccnc(Nc2ccc(C#N)cc2)n1 | = | 478
Cc1cc(-c2ccncc2)cc(C)c1Nc1ccnc(Nc2ccc(C#N)cc2)n1.O=S(=O)(O)O | = | 1.9

====

assay: AUCinfinity in Sprague-Dawley rat at 5 mg/kg, po administered via gavage measured up to 24 hrs by LCMS analysis; format: ADME, organism-based; parameters: route oral, dose 5 mg/kg, time <=24; settings: in vivo

structureString | AUC(0-inf)
Cc1cc(-c2ccncc2)cc(C)c1Nc1ccnc(Nc2ccc(C#N)cc2)n1.Cl | 861 ng·h/mL

====

assay: AUC (0 to last) in Sprague-Dawley rat at 5 mg/kg, po administered via gavage measured up to 24 hrs by LCMS analysis; format: ADME, organism-based; parameters: route oral, dose 5 mg/kg, time <=24; conditions: in vivo

structureString | AUC(0-t) at 24 h
Cc1cc(-c2ccncc2)cc(C)c1Nc1ccnc(Nc2ccc(C#N)cc2)n1.Cl | 835 ng·h/mL

====

Listed molecules paired with reported log10 IC50
biological target: Human immunodeficiency virus type 1 reverse transcriptase (Human immunodeficiency virus 1); assay: Inhibition of recombinant wild type p66/p51 HIV1 reverse transcriptase incubated for 40 mins by picogreen dye-based spectrofluorometric analysis
quantityMeasured: log10 IC50 (log10 of the value in nM)

structureString | log10 IC50
Cc1cc(-c2cncnc2)cc(C)c1Nc1ccnc(Nc2ccc(C#N)cc2)n1 | 2.54
COc1ncc(-c2cc(C)c(Nc3ccnc(Nc4ccc(C#N)cc4)n3)c(C)c2)cn1 | 1.58
Cc1cc(-c2cc3ccccc3s2)cc(C)c1Nc1ccnc(Nc2ccc(C#N)cc2)n1 | 1.79
Cc1cc(-c2cc(F)nc(F)c2)cc(C)c1Nc1ccnc(Nc2ccc(C#N)cc2)n1 | 1.66
Cc1cnc(Nc2ccc(C#N)cc2)nc1Nc1c(F)cc(-c2cncc(C#N)c2)cc1F | 2.43
Cc1cc(-c2cc(C)c(Nc3ccnc(Nc4ccc(C#N)cc4)n3)c(C)c2)cc(C)n1 | 1.82
Cc1cc(-c2ccncc2)cc(C)c1Nc1ccnc(Nc2ccc(C#N)cc2)n1 | 1.49
Cc1ncc(-c2cc(C)c(Nc3ccnc(Nc4ccc(C#N)cc4)n3)c(C)c2)cn1 | 1.67
Cc1cnc(Nc2ccc(C#N)cc2)nc1Nc1c(F)cc(-c2ccnc(F)c2)cc1F | 1.56
Cc1cnc(Nc2ccc(C#N)cc2)nc1Nc1c(F)cc(-c2cncnc2)cc1F | 2.45

Values were extracted from ChEMBL document CHEMBL5042530.
